conditions: pH 2.7
Marks after values point to notes of the source that are not given here.
Give LogP for every item shown.

CCCCC(CC)C(=O)Nc1cccc(CO/N=C(/c2ccccc2)c2noc(=O)n2C)n1 (centres unmarked) ... 4.49 [a]
Cn1c(/C(=N\OCc2cccc(NC(=O)OCCC(C)(C)C)n2)c2ccccc2)noc1=O ... 4.68 [a]
Cn1c(/C(=N\OCc2cccc(NC(=O)C(C)(C)C)n2)c2ccccc2)noc1=O ... 3.48 [a]
C=CCCC(=O)Nc1cccc(CON=C(c2ccccc2)c2noc(=O)n2C)n1 ... 3.25 [a]
Cn1c(/C(=N\OCc2cccc(NC(=O)Cc3ccccc3Br)n2)c2ccccc2)noc1=O ... 3.85 [a]
C#CCCOC(=O)Nc1nc(CON=C(c2ccccc2Cl)c2noc(=O)n2C)cs1 ... 3.19 [a]

Dear colleague, could you send me LogP for each of the items below? Thanks.
1. Cn1c(/C(=N\OCc2cccc(NC(=O)OCC[Si](C)(C)C)n2)c2ccccc2)noc1=O
2. CCOCCOCCOC(=O)Nc1cccc(CO/N=C(/c2ccccc2)c2noc(=O)n2C)n1

Output:
1. 4.88 [a]
2. 3.13 [a]

----------
conditions: pH 2.7
Marks after values point to notes of the source that are not given here.
Hi there, I'd appreciate the recorded LogP for every entry that follows.

Please state, for each entry, its recorded LogP.
1. CCC(C)(C)OC(=O)Nc1cccc(CO/N=C(/c2ccccc2)c2noc(=O)n2C)n1
2. Cn1c(/C(=N\OCc2csc(NC(=O)OCc3ccccc3)n2)c2ccccc2)noc1=O
3. Cn1c(/C(=N\OCc2cccc(NC(=O)OCC#C[Si](C)(C)C)n2)c2ccccc2)noc1=O
4. CC#CCCOC(=O)Nc1cccc(CO/N=C(/c2ccccc2)c2noc(=O)n2C)n1
5. CCC(=O)Nc1cccc(CO/N=C(/c2ccccc2)c2noc(=O)n2C)n1
6. Cn1c(/C(=N\OCc2csc(NC(=O)COc3ccccc3)n2)c2ccccc2)noc1=O

Output:
["1.99 [a]", "3.73 [a]", "4.63 [a]", "3.58 [a]", "2.77 [a]", "3.51 [a]"]

Can you give me LogP for all of these, one by one?
1. Cn1c(/C(=N\OCc2cccc(NC(=O)OCCC3CC3)n2)c2ccccc2)noc1=O
2. CCCCCOC(=O)Nc1cccc(CO/N=C(/c2cccc(OC)c2)c2noc(=O)n2C)n1

Output:
4.01 [a]
4.46 [a]

----------
For each of the compounds below, state its LogP.
details: pH 2.7
Marks after values point to notes of the source that are not given here.

Some solved cases for reference:
CC(=O)CCCOC(=O)Nc1cccc(CO/N=C(/c2ccccc2)c2noc(=O)n2C)n1 ... 2.96 [a]
CCCCOC(=O)Nc1cccc(CO/N=C(/c2cccc(C)c2)c2noc(=O)n2C)n1 ... 4.36 [a]
COc1ccccc1OC(C)C(=O)Nc1nc(CO/N=C(/c2ccccc2)c2noc(=O)n2C)cs1 (stereo not shown) ... 3.89 [a]
C#CCCOC(=O)Nc1cccc(CON=C(C(N)=NO)c2ccccc2)n1 (mixture of isomers) ... 2.1 [a]

Kindly give each listed record's LogP.
1. Cn1c(C(=NOCc2cccc(NC(=O)OCc3ccccc3F)n2)c2ccccc2)noc1=O
2. Cc1cccc(C(=NOCc2cccc(N)n2)C(N)=NO)c1 (mixture of isomers)
3. Cn1c(C(=NOCc2cccc(NC(=O)OCCCCCCCl)n2)c2ccccc2)noc1=O
4. CC(C)OCCOC(=O)Nc1cccc(CO/N=C(/c2ccccc2)c2noc(=O)n2C)n1
5. Cc1ccccc1COC(=O)Nc1cccc(CON=C(c2ccccc2)c2noc(=O)n2C)n1

Output:
1: 4.01 [a]; 2: 0.75 [a]; 3: 4.49 [a]; 4: 3.44 [a]; 5: 4.29 [a]

For each of the items listed, what is its LogP?
1. CC(OC(=O)Nc1cccc(CON=C(c2ccccc2)c2noc(=O)n2C)n1)C1CCCCC1 (stereo not shown)
2. Cn1c(/C(=N\OCc2cccc(NC(=O)C3(F)CC3)n2)c2ccccc2)noc1=O
3. Cn1c(/C(=N\OCc2cccc(NC(=O)COc3cccc(Br)c3)n2)c2ccccc2)noc1=O
4. C=CCCCCOC(=O)Nc1cccc(CO/N=C(/c2ccccc2)c2noc(=O)n2C)n1
5. C=CCOCCOC(=O)Nc1cccc(CON=C(c2ccccc2)c2noc(=O)n2C)n1

Output:
1. 5.25 [a]
2. 3.31 [a]
3. 4.2 [a]
4. 4.39 [a]
5. 3.37 [a]

Below are 2 compounds. Give each one its LogP.
1. Cn1c(/C(=N\OCc2csc(NC(=O)Cc3ccccc3)n2)c2ccccc2)noc1=O
2. CCCCCC(=O)Nc1nc(CO/N=C(/c2ccccc2Cl)c2noc(=O)n2C)cs1

Output:
1. 3.37 [a]
2. 3.89 [a]
